I'd appreciate it if you could supply abundance fitness values for the items below.
B1: Proto-oncogene vav, residues 782 to 842; numbered along this chain, P15498 (parent)
chain: KYFGTAKARYDFCARDRSELSLKEGDIIKILNKKGQQGWWRGEIYGRVGWFPANYVEEDYS

variants of: B1; experiment: abundance fitness (aPCA) (normalised: wild type 0, dead -1); higher = more abundant; growth selection in yeast, the domain comes from the species named; conditions: Homo sapiens
One number for each entry.

// known answers, use as guide
Mutant designation: G49S
abundance fitness: -0.618

Mutant designation: Y10L
abundance fitness: -0.122

Mutant designation: A6Y
abundance fitness: -0.264

Mutant designation: G35L
abundance fitness: -0.469

Mutant designation: I44W
abundance fitness: -0.556

List abundance fitness for every entry below, keeping the order given.
1. F12E
2. I27S
3. W50K
4. G42M
5. N54M
6. G35S
7. D11V

result:
1: -1.01; 2: -0.276; 3: -0.559; 4: -0.748; 5: -0.214; 6: -0.104; 7: -0.587

Lab note: each variant below needs its abundance fitness filled in.
1. A53F
2. A6K
3. E19V
4. W40D
5. F3H
6. R47A
7. I27K

result:
1: -0.472; 2: -0.725; 3: -0.922; 4: -0.747; 5: -0.396; 6: -0.268; 7: -0.22

Please state abundance fitness for every variant in the list that follows.
1. A14W
2. R41L
3. A14F

result:
[-0.649, 0.031, -0.804]
